For each entry below, report its GI50 value.
test system: HOP-92; test: Growth inhibition of human HOP92 cells after 48 hrs by SRB assay; assay type: functional; settings: HOP-92, 48 h
// units = µM; emit number, no label

GI50 for HOP-92 with input Nc1nn(C(=O)Nc2c(F)cccc2F)c2ccccc12 equals 17.3

HOP-92 GI50 of CCCCOc1ccc(NC(=O)n2nc(N)c3ccccc32)cc1 is 18.6

Given the compound O=C(Nc1ccc(Cc2ccccc2)cc1)Nc1nn(C(=O)Nc2ccc(Cc3ccccc3)cc2)c2ccccc12 and test system HOP-92, the measured GI50 is 18

Lab entry: HOP-92 assay, compound COc1ccc(NC(=O)n2nc(N)c3ccccc32)cc1OC , GI50 = 24.6

Lab note: compound Nc1nn(C(=O)Nc2ccc(Cc3ccccc3)cc2)c2ccccc12 tested on HOP-92; recorded GI50 was 14.2

For COc1ccccc1NC(=O)n1nc(N)c2ccccc21 on HOP-92, measured GI50 was 30.2

GI50 value, target or system HOP-92, for O=C(Nc1ccccc1OC(F)(F)F)Nc1n[nH]c2ccccc12 : 12.9

====

Give measured GI50 for each item. Keep answers brief.
system: SK-MEL-28; assay: Growth inhibition of human SK-MEL-28 cells after 48 hrs by SRB assay; type: functional; settings: SK-MEL-28, 48 h
Kindly answer with a numeric value in µM, unit omitted.

Noted for Nc1nn(C(=O)Nc2c(F)cccc2F)c2ccccc12 : its GI50 reads 56.3

Form field GI50, entry O=C(Nc1ccccc1OC(F)(F)F)Nc1n[nH]c2ccccc12 : 42.2

# compound Nc1nn(C(=O)Nc2ccc(Cc3ccccc3)cc2)c2ccccc12 ; its GI50 = 11.5

Lab note: CCCCOc1ccc(NC(=O)n2nc(N)c3ccccc32)cc1 gave GI50 of 32.6

====

test system: EKVX; assay: Growth inhibition of human EKVX cells after 48 hrs by SRB assay; assay type: functional
Answer each item with its documented GI50.
Write the number in µM without appending the unit.

# GI50 (compound: O=C(Nc1ccccc1OC(F)(F)F)Nc1n[nH]c2ccccc12 ) is 48.2

Per the records, this compound ( COc1ccccc1NC(=O)n1nc(N)c2ccccc21 ) has GI50 equal to 44.8

The value of GI50 measured for the compound COc1ccc(NC(=O)n2nc(N)c3ccccc32)cc1OC turned out to be 54.1

Kindly note the recorded GI50 for Nc1nn(C(=O)Nc2ccc(Cc3ccccc3)cc2)c2ccccc12 , which is 11.2

Sure, the documented GI50 for CCCCOc1ccc(NC(=O)n2nc(N)c3ccccc32)cc1 is 13.3

Looking up Nc1nn(C(=O)Nc2c(F)cccc2F)c2ccccc12 , I found its GI50 recorded as 84

====

Please go through the items and note down their GI50.
tested on: COLO 205; assay: Growth inhibition of human COLO205 cells after 48 hrs by SRB assay; type: functional; settings: COLO 205, 48 h
Number in µM, nothing else.

# value of GI50, COLO 205, item CCCCOc1ccc(NC(=O)n2nc(N)c3ccccc32)cc1 = 13.9

With COLO 205 as the test system, Nc1nn(C(=O)Nc2ccc(Cc3ccccc3)cc2)c2ccccc12 showed GI50 of 13.4

GI50 of COc1ccc(NC(=O)n2nc(N)c3ccccc32)cc1OC , assay on COLO 205, is 85.9

Kindly note: COLO 205, O=C(Nc1ccccc1OC(F)(F)F)Nc1n[nH]c2ccccc12 , GI50 value reported: 71.8

====

tested on: UACC-62; assay: Growth inhibition of human UACC62 cells after 48 hrs by SRB assay; format: functional; conditions: UACC-62, 48 h
reported property: GI50 (µM)
The reply should contain only the number, in µM.

Readout GI50 for O=C(Nc1ccc(Cc2ccccc2)cc1)Nc1nn(C(=O)Nc2ccc(Cc3ccccc3)cc2)c2ccccc12 , test system UACC-62, was 41.6

Here Nc1nn(C(=O)Nc2c(F)cccc2F)c2ccccc12 was tested on UACC-62, and its GI50 came to 43.9

The reported GI50 value, UACC-62, for COc1ccc(NC(=O)n2nc(N)c3ccccc32)cc1OC reads 52.3

I looked up O=C(Nc1ccccc1OC(F)(F)F)Nc1n[nH]c2ccccc12 and its GI50 for UACC-62 was 31.7

Tested on UACC-62: Nc1nn(C(=O)Nc2ccc(Cc3ccccc3)cc2)c2ccccc12 . Observed GI50: 0.353

Here CCCCOc1ccc(NC(=O)n2nc(N)c3ccccc32)cc1 was tested on UACC-62, and its GI50 came to 14.7

====

tested on: SF-268; test: Growth inhibition of human SF268 cells after 48 hrs by SRB assay; format: functional; conditions: SF-268, 48 h
Field: GI50. Provide a value for each of the compounds that follow.
Express the result in µM but write the number alone.

The recorded GI50 for O=C(Nc1ccc(Cc2ccccc2)cc1)Nc1nn(C(=O)Nc2ccc(Cc3ccccc3)cc2)c2ccccc12 is 75.6

Notebook: Nc1nn(C(=O)Nc2ccc(Cc3ccccc3)cc2)c2ccccc12 , GI50 read as 4.66

GI50 in this record for CCCCOc1ccc(NC(=O)n2nc(N)c3ccccc32)cc1 : 25.8

Just so you know, measured GI50 for COc1ccc(NC(=O)n2nc(N)c3ccccc32)cc1OC came out at 49.6

Recorded result, O=C(Nc1ccccc1OC(F)(F)F)Nc1n[nH]c2ccccc12 , GI50: 16.2

Reported GI50 for Nc1nn(C(=O)Nc2c(F)cccc2F)c2ccccc12 was 36.2

====

test system: 786-0; assay: Growth inhibition of human 786-0 cells after 48 hrs by SRB assay; format: functional; settings: 786-0, 48 h
reported property: GI50

The measured GI50 associated with O=C(Nc1ccccc1OC(F)(F)F)Nc1n[nH]c2ccccc12 reads 38.7 µM

So, O=C(Nc1cc(C(F)(F)F)ccc1F)Nc1n[nH]c2ccccc12 ? Its GI50 was > 100 µM

Consider COc1ccccc1NC(=O)n1nc(N)c2ccccc21 . Its measured GI50 is > 100 µM

Entry O=C(Nc1ccc(Cc2ccccc2)cc1)Nc1nn(C(=O)Nc2ccc(Cc3ccccc3)cc2)c2ccccc12 , GI50 reported as > 100 µM

Recorded GI50 (compound Nc1nn(C(=O)Nc2ccc(Cc3ccccc3)cc2)c2ccccc12 ): 3.76 µM

Entry COc1ccc(NC(=O)Nc2n[nH]c3ccccc23)cc1 — recorded GI50 = > 100 µM

====

test system: HCT-15; test: Growth inhibition of human HCT15 cells after 48 hrs by SRB assay; format: functional; details: HCT-15, 48 h
reported property: GI50 (µM)
Could you give me the number in µM? Just the number is fine.

Assay HCT-15, sample CCCCOc1ccc(NC(=O)n2nc(N)c3ccccc32)cc1 , GI50 read: 15.5

Lab note: molecule Nc1nn(C(=O)Nc2ccc(Cc3ccccc3)cc2)c2ccccc12 tested on HCT-15; recorded GI50 was 1.08

I looked up O=C(Nc1ccccc1OC(F)(F)F)Nc1n[nH]c2ccccc12 and its GI50 for HCT-15 was 36.2

Test item COc1ccc(NC(=O)n2nc(N)c3ccccc32)cc1OC ; HCT-15; reported GI50 was 44.1

Nc1nn(C(=O)Nc2c(F)cccc2F)c2ccccc12 tested on HCT-15 gave GI50: 40.9

Entry COc1ccccc1NC(=O)n1nc(N)c2ccccc21 : GI50 on HCT-15 = 73.6

====

Kindly state GI50 for each of the entries shown.
test system: RXF 393; experiment: Growth inhibition of human […] cells after 48 hrs by SRB assay; assay type: functional; settings: RXF 393, 48 h
Lab book: enter the figure in µM, no units written.

Entry COc1ccc(NC(=O)n2nc(N)c3ccccc32)cc1OC — recorded GI50 = 95.2

// GI50 value for Nc1nn(C(=O)Nc2c(F)cccc2F)c2ccccc12 : 20.2

Item: O=C(Nc1ccc(Cc2ccccc2)cc1)Nc1nn(C(=O)Nc2ccc(Cc3ccccc3)cc2)c2ccccc12 | GI50: 30.4

GI50 reported for this compound CCCCOc1ccc(NC(=O)n2nc(N)c3ccccc32)cc1 : 29.6

Per the record, Nc1nn(C(=O)Nc2ccc(Cc3ccccc3)cc2)c2ccccc12 has GI50 of 22.2

GI50 reading for COc1ccccc1NC(=O)n1nc(N)c2ccccc21 : 45.7

Reported GI50 for O=C(Nc1ccccc1OC(F)(F)F)Nc1n[nH]c2ccccc12 was 24.3

====

system: NCI-H23; test: Growth inhibition of human NCI-H23 cells after 48 hrs by SRB assay; type: functional; details: NCI-H23, 48 h
reported property: GI50

// GI50 lookup, compound = COc1ccc(NC(=O)Nc2n[nH]c3ccccc23)cc1 , result: > 100 µM

For this compound ( O=C(Nc1cc(C(F)(F)F)ccc1F)Nc1n[nH]c2ccccc12 ), measured GI50 is > 100 µM

Reported GI50 for Nc1nn(C(=O)Nc2ccc(Cc3ccccc3)cc2)c2ccccc12 was 16.8 µM

Reported GI50 of O=C(Nc1ccc(Cc2ccccc2)cc1)Nc1nn(C(=O)Nc2ccc(Cc3ccccc3)cc2)c2ccccc12 : > 100 µM

Value of GI50 reported for the compound COc1ccccc1NC(=O)n1nc(N)c2ccccc21 is > 100 µM

// recorded GI50 for Nc1nn(C(=O)Nc2c(F)cccc2F)c2ccccc12 : 95.6 µM

The reported measurements were obtained from ChEMBL document CHEMBL1152860.
